# STUDY TARGET: FGFR3 (UniProt P22607)
# Sequence (P22607 whole entry, looked up): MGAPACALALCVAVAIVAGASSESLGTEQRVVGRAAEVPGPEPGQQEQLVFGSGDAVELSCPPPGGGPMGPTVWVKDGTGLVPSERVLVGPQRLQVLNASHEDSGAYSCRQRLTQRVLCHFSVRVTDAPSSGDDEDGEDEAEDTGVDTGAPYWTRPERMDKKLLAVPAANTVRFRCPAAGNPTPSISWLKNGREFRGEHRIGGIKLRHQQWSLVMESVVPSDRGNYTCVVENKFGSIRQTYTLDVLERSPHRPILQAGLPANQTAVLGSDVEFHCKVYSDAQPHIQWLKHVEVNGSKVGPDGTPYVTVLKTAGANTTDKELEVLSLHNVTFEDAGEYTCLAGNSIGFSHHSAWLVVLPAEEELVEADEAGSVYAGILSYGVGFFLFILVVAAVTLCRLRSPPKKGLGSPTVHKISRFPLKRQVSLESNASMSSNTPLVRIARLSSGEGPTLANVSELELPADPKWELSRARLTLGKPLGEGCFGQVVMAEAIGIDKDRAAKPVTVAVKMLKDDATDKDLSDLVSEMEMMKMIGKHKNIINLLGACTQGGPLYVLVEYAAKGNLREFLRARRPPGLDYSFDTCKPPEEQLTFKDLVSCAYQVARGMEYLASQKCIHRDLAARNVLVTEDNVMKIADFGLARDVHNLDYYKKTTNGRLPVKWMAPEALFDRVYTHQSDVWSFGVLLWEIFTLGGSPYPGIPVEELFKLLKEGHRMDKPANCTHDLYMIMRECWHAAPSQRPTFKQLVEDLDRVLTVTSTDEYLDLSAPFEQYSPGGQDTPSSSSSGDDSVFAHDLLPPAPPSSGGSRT
# MEASUREMENT NOTES: phosphorylation enrichment, bacterial display (enrichment ratio); higher = better substrate or ligand; peptides without Tyr show the background;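 note: 11-residue human phosphosite peptides and single-mutation variants displayed on the E. coli surface, counted by deep sequencing, each peptide's frequency after selection divided by its frequency in the unselected input library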;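 note: frequency after pTyr selection over input frequency; kinase dosed for 20-30% of maximal phosphorylation in three min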
Entries annotated with measured phosphorylation enrichment

| SEQUENCE CONTENT | phosphorylation enrichment |
| --- | --- |
| MHYSNYVSKGS [PDGFRA_Y849_D846Y] | 0.397 |
| SIKDKYVMALY [KCNH2_Y611_T613M] | 0.547 |
| FGSRLYKFAFK [FANCD2_Y458_L456R_YF] | 0.484 |
| VGTKRYMAPKV [ACVRL1_Y375_E379K] | 0.372 |
| TIQRMYGCDVG [HLA-A_Y123_I121R] | 0.598 |
| RELSWYRGQRP [HESX1_Y106_R109Q] | 0.541 |
| FFRDGHMPRQF [GSS_Y270_Y270H_YF] | 0.487 |
| FKDFFYCWNTF [AICDA_Y146_YF] | 1.09 |
| VSSPKYGGDDE [TMCC2_Y473_S475G] | 0.573 |
| LARDMYDKEYY [MET_Y1230] | 0.973 |
| ENGPYYTSYPP [GDAP2_Y488] | 1.89 |
| RFLERYIYNRQ [HLA-DPB1_Y57_E62Q] | 0.805 |
| DTVRIYDDDFF [UBA1_Y560_E557V] | 0.642 |
| IRRQGYSHRIL [MYO3B_Y993] | 0.469 |

====

# STUDY TARGET: Fes (UniProt P07332)
# Sequence (P07332 whole entry, looked up): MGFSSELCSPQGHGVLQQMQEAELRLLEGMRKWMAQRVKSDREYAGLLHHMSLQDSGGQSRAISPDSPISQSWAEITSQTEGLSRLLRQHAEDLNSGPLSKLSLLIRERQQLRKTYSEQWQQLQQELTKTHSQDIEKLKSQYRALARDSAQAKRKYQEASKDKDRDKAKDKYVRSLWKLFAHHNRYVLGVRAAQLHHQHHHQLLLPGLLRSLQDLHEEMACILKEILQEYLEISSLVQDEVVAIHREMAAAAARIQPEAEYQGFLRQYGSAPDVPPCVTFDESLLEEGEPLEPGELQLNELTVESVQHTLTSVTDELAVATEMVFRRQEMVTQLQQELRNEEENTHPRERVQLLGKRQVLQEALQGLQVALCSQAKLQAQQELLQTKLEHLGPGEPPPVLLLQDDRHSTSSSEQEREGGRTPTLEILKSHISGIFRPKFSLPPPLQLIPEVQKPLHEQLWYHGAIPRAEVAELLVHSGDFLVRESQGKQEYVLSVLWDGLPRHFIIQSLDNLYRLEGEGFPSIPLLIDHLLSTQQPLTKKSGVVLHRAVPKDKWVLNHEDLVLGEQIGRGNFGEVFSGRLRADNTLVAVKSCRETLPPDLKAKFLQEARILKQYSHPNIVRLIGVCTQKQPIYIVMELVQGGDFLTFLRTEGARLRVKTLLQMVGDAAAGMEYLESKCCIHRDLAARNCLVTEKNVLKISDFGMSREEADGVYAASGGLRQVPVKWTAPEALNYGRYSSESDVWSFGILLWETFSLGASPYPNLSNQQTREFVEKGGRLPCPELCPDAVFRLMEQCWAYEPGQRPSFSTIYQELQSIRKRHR
# MEASUREMENT NOTES: phosphorylation enrichment, bacterial display (enrichment ratio); higher = better substrate or ligand; peptides without Tyr show the background
Satisfied means recorded phosphorylation enrichment is 1 or above; Not satisfied means it is below 1.

| SEQUENCE CONTENT | DISCRETE LABEL |
| --- | --- |
| RLLVVYRWTQR [HBB_Y36_P37R] | Satisfied |
| ESLRRYLENGK [HLA-B_Y195_W191S] | Not satisfied |
| GHPFAYDWISI [BEST1_Y227_L224P_YF] | Satisfied |
| RDLTDYLMKIL [ACTA1_Y190] | Satisfied |
| VSFGEYRFRSV [CFTR_Y515_D513G_YF] | Not satisfied |
| FQEKGYNKEPR [CHRND_Y38_L42P] | Not satisfied |
| LFEDCYLLGTS [ASS1_Y87_R86C_YF] | Satisfied |
| GLRFGYGGLGG [KRTAP20-2_Y15_V17G_YF] | Not satisfied |
| HAVYIYDICHV [TWNK_Y508_V507I] | Satisfied |
| SISFDYCRVPM [BST2_Y8_T4I_YF] | Satisfied |
| IWDLKYTIENP [SND1_Y178_R174W] | Satisfied |
| GNHISYYQSDG [CACNA1C_Y1757_V1755I] | Not satisfied |
| LKDEDYLKDIV [HAUS3_Y582] | Satisfied |
| GRVLGYGAFGK [FLT4_Y853] | Not satisfied |
| LSPNMYNSKLW [TARSL2_Y457] | Satisfied |
| QCTSAHPLQPE [NANS_Y188_Y188H] | Satisfied |
| RVLHNYLVWCV [ECEL1_Y400_R404C] | Satisfied |
| EQSNPYMVLDI [ROCK2_Y1197] | Satisfied |
| YDDGKYVYVVT [RPS6KA3_Y488] | Satisfied |
| CTTIHYNYICN [TP53_Y234_M237I] | Not satisfied |
| LSPNMYNSKFW [TARSL2_Y457_L461F] | Satisfied |
| MHYSNYVSKGS [PDGFRA_Y849_D846Y] | Not satisfied |
| GRQGIYTENER [GPR143_Y231] | Not satisfied |
| RFLERYIYNRQ [HLA-DPB1_Y57_E62Q] | Satisfied |
| PSTYRYERGSR [INPPL1_Y663_P659S] | Not satisfied |
| FGGLRYGFGGL [KRTAP20-2_Y13_V17G_YF] | Satisfied |
